- studySystem: SETD2(1434-1711) (Homo sapiens)
- Construct: SETD2 (1434-1711) Assay; catalogue N/A
- assayNotes: SETD2 (1434-1711) assay
- Assay type: biochemical
- conditionsUsed: read-out: SETD2 (1434-1711)
measuredEndpoint: IC50 (nM)

Some entries whose results are on file:
molecule	IC50 / nM
COCC(=O)N(C)[C@H]1CCN([C@@H]2CCC[C@@H](NC(=O)c3cc4c(F)ccc(C)c4[nH]3)C2)C1	2900
Cc1ccc(F)c2cc(C(=O)NC3C(=O)NCCc4cccnc43)[nH]c12 (centres unmarked)	1300
Cc1ccc(F)c2cc(C(=O)Nc3cccc(-c4cccn5nccc45)c3)[nH]c12	100
Cc1ccc(F)c2cc(C(=O)Nc3cc(F)cc(N4CCC(N5CCN6C(=O)N(C)CC6C5)C4)c3)[nH]c12 (centres unmarked)	5
Cc1cc(C(=O)NC2CCN(C)CC2)cnc1C(NC(=O)c1cc2cccc(C)c2[nH]1)C1CC1 (centres unmarked)	600

I. CN/C(=N\C#N)N1CCN([C@H]2CCC[C@@H](NC(=O)c3cc4c(F)ccc(C)c4[nH]3)C2)CC1
II. CC(=O)N1CCN(c2cccc(NC(=O)c3cc4cccc(C5CC5)c4[nH]3)c2)CC1
Lower value of IC50 belongs to which: I or II ? When you have decided, please share the label of that item. I
(I: 40 nM, II: 22400 nM)

###

- studySystem: SETD2(1434-1711) (Homo sapiens, UniProt Q9BYW2)
- Construct: SETD2 (1434-1711) Assay; catalogue N/A
- Sequence (Q9BYW2 1434-1711): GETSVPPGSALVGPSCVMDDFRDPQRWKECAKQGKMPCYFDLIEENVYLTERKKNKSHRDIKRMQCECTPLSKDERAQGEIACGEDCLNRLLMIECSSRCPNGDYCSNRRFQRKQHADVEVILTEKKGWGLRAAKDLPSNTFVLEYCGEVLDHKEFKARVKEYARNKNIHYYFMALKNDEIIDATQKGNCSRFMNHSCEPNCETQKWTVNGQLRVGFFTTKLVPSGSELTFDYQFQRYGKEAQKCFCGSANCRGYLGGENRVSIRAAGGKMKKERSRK
- assayNotes: SETD2 (1434-1711) assay
- Assay type: biochemical
- conditionsUsed: read-out: SETD2 (1434-1711)
pIC50: −log10 of the molar value.
measuredEndpoint: pIC50

Some entries whose results are on file:
compound	studySystem	readoutValue
CNC(=O)CC(NC(=O)c1cc2cccc(C)c2[nH]1)c1ncccc1C (stereo not drawn)	SETD2(1434-1711) (Homo sapiens, UniProt Q9BYW2)	4.34
CC(=O)N1CCN([C@@H]2CCC[C@@H](NC(=O)c3cc4c(F)ccc(C)c4[nH]3)C2)CC1C (stereo partly drawn)	SETD2(1434-1711) (Homo sapiens, UniProt Q9BYW2)	6.05
Cc1ccc(N2CCN(S(=O)(=O)CCN)CC2)cc1NC(=O)c1cc2cccc(C)c2[nH]1	SETD2(1434-1711) (Homo sapiens, UniProt Q9BYW2)	6.10
Cc1ccc(F)c2cc(C(=O)N[C@@H]3CCC[C@H](c4ccncn4)C3)[nH]c12	SETD2(1434-1711) (Homo sapiens, UniProt Q9BYW2)	7.52
Cc1ccc(F)c2cc(C(=O)Nc3cccc(N4CCN(C(=O)CF)CC4)c3)[nH]c12	SETD2(1434-1711) (Homo sapiens, UniProt Q9BYW2)	7.52

I. Cc1nnc(C2CCCC(NC(=O)c3cc4c(F)ccc(C)c4[nH]3)C2)o1 (stereo not drawn) [compound 975]
II. Cc1cc(CCNC(=O)Cc2cccnc2)cnc1C(NC(=O)c1cc2cccc(C)c2[nH]1)C1CC1 (stereo not drawn)
III. CC(=O)N1C2CCC1CN(C1CCCC(NC(=O)c3cc4c(F)ccc(C)c4[nH]3)C1)C2 (stereo not drawn) [compound 926]
Put the items in order so that reported pIC50 rises from first to last. Please respond by ranking the labels in the order requested. II, I, III

1. Cc1cc2nccn2nc1C(NC(=O)c1cc2c(F)ccc(C)c2[nH]1)C1CC1 (stereo not drawn)
2. COC(=O)CC(NC(=O)c1cc2cccc(C)c2[nH]1)c1ccc(Br)cc1 (stereo not drawn) [compound 525]
3. Cc1ccc(F)c2cc(C(=O)Nc3cccc(N4CCC(C)(O)CC4)c3)[nH]c12
4. Cc1ccc(F)c2cc(C(=O)N[C@@H]3CCC[C@@H](N4CCN5C(=O)CCC[C@@H]5C4)C3)[nH]c12
5. Cc1ccc(F)c2cc(C(=O)Nc3cccc(N4CCC(N)CC4)c3)[nH]c12
Put the items in order so that reported pIC50 rises from first to last. Please respond by ranking the labels in the order requested. 2, 1, 4, 3, 5

P. Cc1ccc(F)c2cc(C(=O)Nc3cccc(-c4nnc(N)[nH]4)c3)[nH]c12
Q. Cc1ccc(F)c2cc(C(=O)N[C@@H]3CCC[C@H](N4CCn5c(nn(C)c5=O)C4)C3)[nH]c12
R. Cc1cccc2cc(C(=O)N[C@@H]3CCN(C(=O)CCCN)C[C@@H]3C)[nH]c12
S. Cc1ccc(F)c2cc(C(=O)Nc3cc(F)cc(N4CCC(N(C)C)C4=O)c3)[nH]c12 (stereo not drawn)
T. Cc1ccc(F)c2cc(C(=O)Nc3cccc(N4CCN(C(=O)C5CCCN(C)C5)CC4)c3)[nH]c12 (stereo not drawn)
Put the items in order so that reported pIC50 rises from first to last. Please respond by ranking the labels in the order requested. R, P, Q, T, S

1. Cc1ccc(F)c2cc(C(=O)Nc3cccc(N4C5COCC4C5)c3)[nH]c12
2. Cc1cccnc1C(NC(=O)c1cc2cccc(C)c2[nH]1)C1CCC1 (stereo not drawn)
Lower value of pIC50 belongs to which: 1 or 2 ? When you have decided, please share the label of that item. 2
(2: 5.40, 1: 5.82)
